assay_protocol: Pharmacokinetic assay in rat
conditions: male SD rats, i.g. 20 mg/kg in 10% PEG400, parent 3 measured
reported_property: MRT(0-t) (h)

molecule	MRT(0-t) [h]
Cc1c(CO)c(=O)oc2c3c(ccc12)OC(C)(C)[C@H](OC(=O)C12CCC(C)(C(=O)O1)C2(C)C)[C@@H]3OC(=O)C12CCC(C)(C(=O)O1)C2(C)C (stereo partly shown) [Compound 3, 3-hydroxymethyl-4-methyl-DCK]	1.983
Cc1c(COC(=O)CCC(=O)O)c(=O)oc2c3c(ccc12)OC(C)(C)[C@H](OC(=O)[C@@]12CC[C@@](C)(C(=O)O1)C2(C)C)[C@@H]3OC(=O)[C@@]12CC[C@@](C)(C(=O)O1)C2(C)C (relative stereo) [Compound 8]	1.517

(1) Cc1c(COC(=O)C(C)N)c(=O)oc2c3c(ccc12)OC(C)(C)[C@H](OC(=O)[C@@]12CCC(C)(C(=O)O1)C2(C)C)[C@@H]3OC(=O)[C@@]12CCC(C)(C(=O)O1)C2(C)C (relative stereo)
(2) Cc1c(COC(=O)CCC(=O)O)c(=O)oc2c3c(ccc12)OC(C)(C)[C@H](OC(=O)[C@@]12CC[C@@](C)(C(=O)O1)C2(C)C)[C@@H]3OC(=O)[C@@]12CC[C@@](C)(C(=O)O1)C2(C)C (relative stereo) [Compound 6]
Asked: Consider 1 and 2 . Which of these has its MRT(0-t) at a higher number? Let me know the label of the one you choose.
Given back: 2
(2: 2.658 h, 1: 1.793 h)

###

assay_protocol: Pharmacokinetic assay in rat
conditions: male SD rats, i.g. 20 mg/kg in 10% PEG400, parent 3 measured
reported_property: MRT(0-t) (h)

compound	reported_property	numeric_value
Cc1c(COC(=O)C(N)CC(C)C)c(=O)oc2c3c(ccc12)OC(C)(C)[C@H](OC(=O)[C@@]12CCC(C)(C(=O)O1)C2(C)C)[C@@H]3OC(=O)[C@@]12CCC(C)(C(=O)O1)C2(C)C (relative stereo)	MRT(0-t)	1.286

(a) Cc1c(COC(=O)CN)c(=O)oc2c3c(ccc12)OC(C)(C)[C@H](OC(=O)[C@@]12CCC(C)(C(=O)O1)C2(C)C)[C@@H]3OC(=O)[C@@]12CCC(C)(C(=O)O1)C2(C)C (relative stereo)
(b) Cc1c(COC(=O)CN)c(=O)oc2c3c(ccc12)OC(C)(C)[C@H](OC(=O)[C@@]12CCC(C)(C(=O)O1)C2(C)C)[C@@H]3OC(=O)[C@@]12CCC(C)(C(=O)O1)C2(C)C.Cl (relative stereo)
Asked: Given the two records a and b , choose the one whose MRT(0-t) value is lower. Let me know the label of the one you choose.
Given back: b
(b: 2.136 h, a: 3.581 h)

###

assay_protocol: in vitro
conditions: Sprague-Dawley, rat, microsomes, pH 7.4
reported_property: half-life at 1 μM (min)
Report the value in min with no unit label.

Asked: // returns reported half-life at 1 μM for input CC(C)NCC(O)COc1cccc2ccccc12 (stereo not shown)
Given back: 20.7

###

assay_protocol: Pharmacokinetic assay in rat
conditions: male SD rats, i.g. 20 mg/kg in 10% PEG400, plasma parent compound 3 measured
reported_property: AUC(0-t) (ng·L/mL)

(A) Cc1c(COC(=O)CCC(=O)O)c(=O)oc2c3c(ccc12)OC(C)(C)[C@H](OC(=O)[C@@]12CC[C@@](C)(C(=O)O1)C2(C)C)[C@@H]3OC(=O)[C@@]12CC[C@@](C)(C(=O)O1)C2(C)C (relative stereo) [Compound 6]
(B) Cc1c(COC(=O)CCC(=O)O)c(=O)oc2c3c(ccc12)OC(C)(C)[C@H](OC(=O)[C@@]12CC[C@@](C)(C(=O)O1)C2(C)C)[C@@H]3OC(=O)[C@@]12CC[C@@](C)(C(=O)O1)C2(C)C (relative stereo) [Compound 8]
Asked: Consider A and B . Which of these has its AUC(0-t) at a higher number? Let me know the label of the one you choose.
Given back: B
(B: 588.9 ng·L/mL, A: 157.9 ng·L/mL)

(1) Cc1c(COC(=O)CN)c(=O)oc2c3c(ccc12)OC(C)(C)[C@H](OC(=O)[C@@]12CCC(C)(C(=O)O1)C2(C)C)[C@@H]3OC(=O)[C@@]12CCC(C)(C(=O)O1)C2(C)C.Cl (relative stereo) [Compound 13]
(2) Cc1c(COC(=O)C(C)N)c(=O)oc2c3c(ccc12)OC(C)(C)[C@H](OC(=O)[C@@]12CCC(C)(C(=O)O1)C2(C)C)[C@@H]3OC(=O)[C@@]12CCC(C)(C(=O)O1)C2(C)C (relative stereo) [Compound 10]
Asked: Given the two records 1 and 2 , choose the one whose AUC(0-t) value is lower. Let me know the label of the one you choose.
Given back: 1
